Tested on: Tau phosphorylation at Ser396 (pSer396)
Assay: Tau phosphorylation assay (pSer396 ELISA / western blot) in SH-SY5Y cells;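 note: EC50 for reduction of Tau pSer396 in lysed cells, measured by colorimetric ELISA or chemiluminescent western blot, both using the same pSer396 antibody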
Format: cell-based, human
Conditions: Homo sapiens; SH-SY5Y cells, overnight (16-18 h) exposure; read-out: pSer396 Tau EC50
Please respond with reported pEC50 for every item in the list.
Numbers only, as −log10 of the molar value.

Below are worked cases with known answers.
[
  {
    "compound": "Cc1ncc(-c2ccc3cnc(NC(=O)[C@H]4CC[C@H](CN5CC(F)C5)CC4)cc3c2)o1",
    "assayed target": "Tau phosphorylation at Ser396 (pSer396)",
    "pEC50": 6.55
  },
  {
    "compound": "O=C(Nc1cc2cc(-c3cncs3)ccc2cn1)C1CC(F)(F)C1",
    "assayed target": "Tau phosphorylation at Ser396 (pSer396)",
    "pEC50": 6.37
  },
  {
    "compound": "CC(C)CN1CCC(F)(C(=O)Nc2cc3cc(-n4ccnn4)ccc3cn2)CC1",
    "assayed target": "Tau phosphorylation at Ser396 (pSer396)",
    "pEC50": 5.89
  }
]

Hey, can you go through the list below and give me pEC50 for every item?
1. O=C(Nc1cc2cc(-c3cncs3)ccc2cn1)C1CCN(C(=O)CN2CCCC2)CC1
2. Cn1cc(-c2ccc3cnc(NC(=O)[C@@H]4CCCO4)cc3c2)cn1
3. C[C@@H](F)CN1CCC(C(=O)Nc2cc3cc(-c4cnn(C)c4)ccc3cn2)CC1
4. CN1CCC(NC(=O)Nc2cc3cc(-c4cnn(C)c4)ccc3cn2)CC1
5. O=C(Nc1cc2cc(-c3cnco3)ccc2cn1)C1CC1
6. Cn1cc(-c2ccc3cnc(NC(=O)CN4CCC(C(F)(F)F)CC4)cc3c2)cn1
7. CN1CCN(CC(=O)Nc2cc3cc(-c4cn(C)nn4)ccc3cn2)CC1
8. Cn1cc(-c2ccc3cnc(NC(=O)CN4CCCC4)cc3c2)nn1

Result block:
6.28
5.82
6.48
6.01
6.99
6.04
6.41
6.79

For every listed record, write down its pEC50.
1. O=C(Nc1cc2cc(-c3cnc4n3CCNC4)ccc2cn1)C1CC(F)(F)C1
2. [2H]C1([2H])OC([2H])([2H])C([2H])([2H])N(CC(=O)Nc2cc3cc(-c4nnc(C)s4)ccc3cn2)C1([2H])[2H]
3. Cc1ncc(-c2ccc3cnc(NC(=O)[C@H]4CC[C@H](N5CCOCC5)CC4)cc3c2)o1

Result block:
[6.41, 6.60, 6.96]

Hey, quick one: what's pEC50 for each of these?
1. Cn1cncc1-c1ccc2cnc(NC(=O)CN3CCCCC3)cc2c1
2. CC(C)CN1CCC(F)(C(=O)Nc2cc3cc(-c4cnn5c4CN(CCF)CC5)ccc3cn2)CC1

Result block:
6.63
5.74

----------
Target: recombinant DYRK1A kinase (Homo sapiens (Human), UniProt Q13627)
Assay: DYRK1A kinase assay (Ser/Thr 18 peptide Z-lyte FRET);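 note: Read-out is the coumarin to fluorescein emission ratio, referenced to unphosphorylated (0%) and phosphorylated (100%) Ser/Thr 18 peptide controls, values from dose-response curves by non-linear regression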
Settings: 30 μM ATP, 1 h room temperature
property: pEC50
Numbers only, as −log10 of the molar value.

Examples from the recorded data:
[
  {
    "test smiles": "CN1CCC(C(=O)Nc2cc3cc(-c4cnn(C)c4)c(Cl)cc3cn2)CC1",
    "pEC50": 7.30
  },
  {
    "test smiles": "Cn1ncc(-c2ccc3cnc(NC(=O)C4CCC(F)(F)CC4)cc3c2)c1CN1CCCCC1",
    "pEC50": 8.09
  },
  {
    "test smiles": "Cc1ncc(-c2ccc3cnc(NC(=O)C4(F)CC4)cc3c2)n1C",
    "pEC50": 8.26
  }
]

Next compound, please.
Query block: Value wanted: pEC50 (recombinant DYRK1A kinase (Homo sapiens (Human), UniProt Q13627)) of entry `O=C(Nc1cc2cc(-c3cnc4n3CCNC4)ccc2cn1)C1CC(F)(F)C1`
Result block: 7.96

----------
Please provide measured EC50 for the entries that follow.
Test system: Wnt pathway (Sp5-Luc reporter, TCF/LEF binding sites) in SW480 colon carcinoma cells
Experiment: Screening assay for Wnt activity: Sp5-Luc reporter gene assay
Type: cell-based, human
Conditions: Homo sapiens; Sp5-Luc reporter, SW480 cells, 36 to 48 hours
Numbers only, in µM.

[
  {
    "test smiles": "Cn1cc(-c2ccc3cnc(NC(=O)CN4C5CCC4CC5)cc3c2)cn1",
    "EC50 [µM]": 3.39
  }
]

Batch request: EC50 per item, same order as input.
1. O=C(CN1CCCCC1)Nc1cc2cc(-c3cncs3)ccc2cn1
2. CCN(CC)CC(=O)Nc1cc2cc(-c3cnn(C)c3)ccc2cn1
3. Cn1cc(-c2cc(F)c3cnc(NC(=O)C4CCN(CCF)CC4)cc3c2)cn1
4. C[C@@H]1CCCN1CC(=O)Nc1cc2cc(-c3cnco3)ccc2cn1

Result block:
3.97
9.83
0.689
2.71

----------
Biological target: recombinant GSK3β kinase (Homo sapiens (Human))
Sequence (P49841 whole entry): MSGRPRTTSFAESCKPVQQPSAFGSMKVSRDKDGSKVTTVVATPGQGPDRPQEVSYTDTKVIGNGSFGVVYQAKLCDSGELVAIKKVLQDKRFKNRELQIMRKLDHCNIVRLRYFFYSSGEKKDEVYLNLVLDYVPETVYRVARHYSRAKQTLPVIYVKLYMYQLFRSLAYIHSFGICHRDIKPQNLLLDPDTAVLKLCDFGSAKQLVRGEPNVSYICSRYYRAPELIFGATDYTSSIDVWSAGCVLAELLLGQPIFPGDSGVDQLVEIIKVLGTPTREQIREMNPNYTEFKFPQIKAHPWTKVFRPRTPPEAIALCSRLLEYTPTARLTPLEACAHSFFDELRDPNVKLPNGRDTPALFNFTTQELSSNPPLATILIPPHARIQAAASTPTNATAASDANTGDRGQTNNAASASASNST
Experiment: GSK3β kinase assay (Ser/Thr 09 peptide Z-lyte FRET)
Details: 46 μM ATP, 1 h room temperature
Kindly supply the reported EC50 values for the records listed here.
Give bare numbers, in nM.

[
  {
    "compound": "CCN(CC)CC(=O)Nc1cc2cc(-c3cnn(C)c3)ccc2cn1 [Compound 303]",
    "property": "EC50",
    "recorded value": 89
  },
  {
    "compound": "Cn1cc(-c2ccc3cnc(NC(=O)[C@H]4CC[C@H](N5CCOCC5)CC4)cc3c2)cn1 [Compound 6]",
    "property": "EC50",
    "recorded value": 65
  },
  {
    "compound": "Cn1cc(-c2ccc3cnc(NC(=O)C4CCN(CC(=O)O)CC4)cc3c2)cn1 [Compound 1011]",
    "property": "EC50",
    "recorded value": 30
  },
  {
    "compound": "Cn1cc(-c2ccc3cnc(NC(=O)CN4CC(C)(C)C4)cc3c2)cn1 [Compound 273]",
    "property": "EC50",
    "recorded value": 48
  },
  {
    "compound": "CC(C)CN1CCC(C(=O)Nc2cc3cc(-c4cn(C)nn4)ccc3cn2)CC1 [Compound 468]",
    "property": "EC50",
    "recorded value": 7
  }
]

# map each compound to its EC50
1. Cn1cc(-c2ccc3cnc(NC(=O)C4CCN(Cc5ncco5)CC4)cc3c2)cn1 [Compound 360]
2. Cn1cc(-c2ccc3cnc(NC(=O)C45CCN(CC4)CC5)cc3c2)cn1 [Compound 1071]
3. Cc1nnc(-c2ccc3cnc(NC(=O)C4(F)CCN(CC(C)C)CC4)cc3c2)o1 [Compound 309]

Result block:
1: 47; 2: 2730; 3: 120

----------
Test system: Wnt pathway (Sp5-Luc reporter, TCF/LEF binding sites) in SW480 colon carcinoma cells
Test: Screening assay for Wnt activity: Sp5-Luc reporter gene assay;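 note: firefly luciferase luminescence read in stably transduced SW480 cells carrying the Sp5 promoter reporter with eight TCF/LEF sites, compounds given in 0.1% DMSO final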
Type: cell-based, human
Conditions: Homo sapiens; Sp5-Luc reporter, SW480 cells, 36 to 48 hours
property: pEC50
Give bare numbers, as −log10 of the molar value.

[
  {
    "test smiles": "C[C@@H](C(=O)Nc1cc2cc(-c3cnn(C)c3)ccc2cn1)N1CCCC1",
    "assayed target": "Wnt pathway (Sp5-Luc reporter, TCF/LEF binding sites) in SW480 colon carcinoma cells",
    "pEC50": 5.90
  },
  {
    "test smiles": "[2H]C([2H])([2H])n1cc(-c2ccc3cnc(NC(=O)C4CCN(CCC(F)(F)F)CC4)cc3c2)cn1",
    "assayed target": "Wnt pathway (Sp5-Luc reporter, TCF/LEF binding sites) in SW480 colon carcinoma cells",
    "pEC50": 5.64
  },
  {
    "test smiles": "CN1CCN(CC(=O)Nc2cc3cc(-c4cncs4)ccc3cn2)CC1",
    "assayed target": "Wnt pathway (Sp5-Luc reporter, TCF/LEF binding sites) in SW480 colon carcinoma cells",
    "pEC50": 5.49
  }
]

Query block: Look at this compound and give its reported pEC50. `Cc1nnc(-c2ccc3cnc(NC(=O)CN4CC5CCC(C4)O5)cc3c2)s1`
Result block: 5.48

----------
Biological target: recombinant GSK3β kinase (Homo sapiens (Human))
Assay: GSK3β kinase assay (Ser/Thr 09 peptide Z-lyte FRET);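 note: kinase activity read as coumarin to fluorescein emission ratio, 11-point threefold dilutions from 10 µM to 0.0003 µM in duplicate, unphosphorylated and phosphorylated peptide as 0% and 100% controls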
Settings: 46 μM ATP, 1 h room temperature
property: EC50 (nM)
Answers are plain numbers, in nM.

Check out these entries, answers already filled in.
[
  {
    "compound": "Cn1cc(-c2ccc3cnc(NC(=O)[C@H]4CC[C@H](CN5CC(F)C5)CC4)cc3c2)cn1 [Compound 10]",
    "assayed target": "recombinant GSK3β kinase (Homo sapiens (Human))",
    "recorded value": 51
  },
  {
    "compound": "Cn1cc(-c2ccc3cnc(NC(=O)CN4CCCCC4)cc3c2)nn1 [Compound 276]",
    "assayed target": "recombinant GSK3β kinase (Homo sapiens (Human))",
    "recorded value": 6
  },
  {
    "compound": "CC1CCN(CC(=O)Nc2cc3cc(-c4cnn(C)c4CN4CCCCC4)ccc3cn2)CC1 [Compound 851]",
    "assayed target": "recombinant GSK3β kinase (Homo sapiens (Human))",
    "recorded value": 5000
  },
  {
    "compound": "CN1CCC(C(=O)Nc2cc3cc(-c4cncs4)ccc3cn2)CC1 [Compound 718]",
    "assayed target": "recombinant GSK3β kinase (Homo sapiens (Human))",
    "recorded value": 79
  },
  {
    "compound": "Cn1cc(-c2ccc3cnc(NC(=O)OC(C)(C)C)cc3c2)cn1 [Compound 1025]",
    "assayed target": "recombinant GSK3β kinase (Homo sapiens (Human))",
    "recorded value": 100
  }
]

For every item below, please supply its EC50.
1. CC(C)CN1CCC(F)(C(=O)Nc2cc3cc(-c4nncn4C)ccc3cn2)CC1 [Compound 280]
2. O=C(Nc1cc2cc(-c3cncs3)ccc2cn1)C1CCN(C2COC2)CC1 [Compound 737]
3. Cc1nnc(-c2ccc3cnc(NC(=O)CN4CCN(C)CC4)cc3c2)s1 [Compound 946]

Result block:
185
62
38
